# Organism: Homo sapiens
# assayMethodText: Selectivity ratio of IC50 for PARP1 (unknown origin) to IC50 for human tankyrase2
resultType: Ratio IC50

{"columns": ["structure", "Ratio IC50"],
 "data": [
  ["Cc1cccc2c(O)nc(-c3ccc(N)cc3)nc12", 170],
  ["Cc1cccc2c(O)nc(-c3ccc(O)cc3)nc12", 240]
]}

* * *

# Lookup of reported IC50 keyed by entry
# studyTarget: Poly [ADP-ribose] polymerase 1 (Homo sapiens, UniProt P09874)
# Sequence (P09874 whole entry): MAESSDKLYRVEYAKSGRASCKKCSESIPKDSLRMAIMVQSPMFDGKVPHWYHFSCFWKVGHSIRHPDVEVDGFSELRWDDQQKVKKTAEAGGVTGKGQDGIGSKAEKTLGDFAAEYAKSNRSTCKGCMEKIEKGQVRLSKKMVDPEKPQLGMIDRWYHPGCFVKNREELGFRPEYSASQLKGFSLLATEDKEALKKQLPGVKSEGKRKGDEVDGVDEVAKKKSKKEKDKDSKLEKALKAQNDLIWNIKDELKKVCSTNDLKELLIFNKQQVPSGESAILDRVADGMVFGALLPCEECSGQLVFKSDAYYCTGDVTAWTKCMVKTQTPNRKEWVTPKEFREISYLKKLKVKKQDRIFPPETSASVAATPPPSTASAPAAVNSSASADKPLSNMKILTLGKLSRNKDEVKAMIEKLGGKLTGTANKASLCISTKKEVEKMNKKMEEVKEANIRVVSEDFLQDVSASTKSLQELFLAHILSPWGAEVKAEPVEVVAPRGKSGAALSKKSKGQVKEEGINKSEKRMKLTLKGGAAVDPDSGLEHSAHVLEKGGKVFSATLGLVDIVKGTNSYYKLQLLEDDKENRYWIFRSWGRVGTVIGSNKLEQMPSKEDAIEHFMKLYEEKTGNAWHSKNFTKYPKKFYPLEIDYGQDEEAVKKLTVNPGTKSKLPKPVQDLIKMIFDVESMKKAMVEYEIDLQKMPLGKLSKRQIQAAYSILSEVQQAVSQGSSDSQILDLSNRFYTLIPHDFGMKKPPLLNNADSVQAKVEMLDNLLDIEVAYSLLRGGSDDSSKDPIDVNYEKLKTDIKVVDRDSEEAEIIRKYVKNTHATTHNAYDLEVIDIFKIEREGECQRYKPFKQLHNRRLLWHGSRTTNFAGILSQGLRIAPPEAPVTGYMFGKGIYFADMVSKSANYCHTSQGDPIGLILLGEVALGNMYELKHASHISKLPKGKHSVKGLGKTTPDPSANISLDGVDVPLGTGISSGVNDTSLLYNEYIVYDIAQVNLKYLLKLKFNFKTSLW

Consider the reported IC50 for these compounds:
{"columns": ["structure", "studyTarget", "IC50"],
 "data": [
  ["Cc1cccc2c(=O)[nH]c(-c3ccc(Cl)cc3)nc12", "Poly [ADP-ribose] polymerase 1 (Homo sapiens, UniProt P09874)", "> 5 µM"],
  ["Cc1cccc2c(=O)[nH]c(-c3ccc(CNC(=O)OCc4ccccc4)cc3)nc12", "Poly [ADP-ribose] polymerase 1 (Homo sapiens, UniProt P09874)", "> 5 µM"]
]}

# ---- query compound ----
**Query** Enter reported IC50 observed with Poly [ADP-ribose] polymerase 1 (Homo sapiens, UniProt P09874) for "Cc1cccc2c(=O)[nH]c(-c3ccc(Br)cc3)nc12"
**Result** > 5 µM

* * *

# Lookup of reported Ratio IC50 keyed by entry
# Organism: Homo sapiens
# assayMethodText: Selectivity ratio of IC50 for PARP1 (unknown origin) to IC50 for human tankyrase1

{"columns": ["structure", "Ratio IC50"],
 "data": [
  ["Cc1cccc2c(=O)[nH]c(-c3ccc(Br)cc3)nc12", "> 150"],
  ["Cc1cccc2c(O)nc(-c3ccc(C(F)(F)F)cc3)nc12", "> 100"]
]}

# ---- query compound ----
**Query** What does the data say about its Ratio IC50? Entry: "Cc1cccc2c(=O)[nH]c(-c3ccc(CNC(=O)OCc4ccccc4)cc3)nc12"
**Result** > 70

* * *

# Organism: Homo sapiens
# assayMethodText: Selectivity ratio of IC50 for PARP1 (unknown origin) to IC50 for human tankyrase2
resultType: Ratio IC50

{"columns": ["structure", "Ratio IC50"],
 "data": [
  ["Cc1cccc2c(O)nc(-c3ccc(C(F)(F)F)cc3)nc12", "> 500"],
  ["Cc1cccc2c(=O)[nH]c(-c3ccc(CNC(=O)OCc4ccccc4)cc3)nc12", "> 110"]
]}

# ---- query compound ----
**Query** What does the data say about its Ratio IC50? Entry: "Cc1cccc2c(=O)[nH]c(-c3ccc(Br)cc3)nc12"
**Result** > 830
